System: SUMO-activating enzyme (Homo sapiens)
Sequence (Q9UBE0 whole entry): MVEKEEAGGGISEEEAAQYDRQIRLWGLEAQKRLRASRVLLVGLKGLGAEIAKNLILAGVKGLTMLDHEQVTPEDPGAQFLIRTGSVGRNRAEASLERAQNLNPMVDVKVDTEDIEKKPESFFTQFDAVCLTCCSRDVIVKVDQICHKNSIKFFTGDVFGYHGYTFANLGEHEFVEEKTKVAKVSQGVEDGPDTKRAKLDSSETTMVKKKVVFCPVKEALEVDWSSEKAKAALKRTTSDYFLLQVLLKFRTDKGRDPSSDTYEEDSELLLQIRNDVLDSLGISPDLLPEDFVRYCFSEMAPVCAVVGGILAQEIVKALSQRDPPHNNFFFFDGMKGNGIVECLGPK
Sequence (Q9UBT2 whole entry): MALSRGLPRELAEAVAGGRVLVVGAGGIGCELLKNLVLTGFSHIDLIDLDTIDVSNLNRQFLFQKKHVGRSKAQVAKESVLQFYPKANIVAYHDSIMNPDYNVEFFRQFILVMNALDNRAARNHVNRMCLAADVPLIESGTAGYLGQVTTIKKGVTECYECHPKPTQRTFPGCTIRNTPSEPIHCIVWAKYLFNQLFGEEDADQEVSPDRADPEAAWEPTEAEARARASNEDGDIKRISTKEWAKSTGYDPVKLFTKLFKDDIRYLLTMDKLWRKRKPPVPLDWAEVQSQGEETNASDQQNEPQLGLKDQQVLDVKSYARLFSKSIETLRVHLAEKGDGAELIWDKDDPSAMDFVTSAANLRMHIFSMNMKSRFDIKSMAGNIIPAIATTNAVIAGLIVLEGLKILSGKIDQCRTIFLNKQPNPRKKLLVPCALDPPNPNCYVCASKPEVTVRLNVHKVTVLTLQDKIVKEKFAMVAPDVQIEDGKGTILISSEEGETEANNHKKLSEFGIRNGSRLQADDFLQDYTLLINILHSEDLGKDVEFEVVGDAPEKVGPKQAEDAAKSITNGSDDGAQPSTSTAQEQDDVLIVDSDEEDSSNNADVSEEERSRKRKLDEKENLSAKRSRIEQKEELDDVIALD
Experiment notes: Inhibition of SAE in human HCT116 cells assessed as reduction in redistribution of SUMO2/3 proteins from nucleus to cytosol incubated for 4 hrs by immunofluorescence assay
Assay type: cell-based, HCT-116
pIC50: −log10 of the molar value.
Recorded endpoint: pIC50

Molecule: Cc1sc(C(=O)c2cncnc2N[C@@H]2C[C@H](COS(N)(=O)=O)[C@@H](O)C2)cc1C1OCCc2ccc(Cl)cc21 (stereo in doubt; 47)
Experimental result: 5.41
//
Molecule: NS(=O)(=O)OC[C@H]1C[C@@H](Nc2ncncc2C(=O)c2ccn(Cc3ccccc3)n2)[C@@H](O)[C@@H]1O
Experimental result: 5.82
//
Molecule: Cc1cccc(Cn2ccc(C(=O)c3cncnc3N[C@@H]3C[C@H](COS(N)(=O)=O)[C@@H](O)C3)n2)c1
Experimental result: 7.54
//
Molecule: CC(O)(c1cccc(Cl)c1)c1csc(C(=O)c2cncnc2N[C@@H]2C[C@H](COS(N)(=O)=O)[C@@H](O)C2)c1 (some centres undefined)
Experimental result: 7.92
//
Molecule: NC(c1cccc(Cl)c1)c1cc(C(=O)c2cncnc2N[C@@H]2C[C@H](COS(N)(=O)=O)[C@@H](O)C2)sc1Cl (some centres undefined)
Experimental result: 8.00
//
Molecule: NS(=O)(=O)OC[C@H]1C[C@@H](Nc2ncncc2C(=O)c2cc(C(O)c3cccc(Cl)c3)c(Cl)s2)C[C@@H]1O (some centres undefined)
Experimental result: 8.05
//
Molecule: Cc1sc(C(=O)c2cncnc2N[C@@H]2C[C@H](COS(N)(=O)=O)[C@@H](O)C2)cc1C1OCCc2ccccc21 (some centres undefined)
Experimental result: 8.22
//
Molecule: CC(O)(c1csc(C(=O)c2cncnc2N[C@@H]2C[C@H](COS(N)(=O)=O)[C@@H](O)[C@H]2O)c1)c1cccc(Br)n1 (some centres undefined)
Experimental result: 7.33
//
Molecule: N#Cc1sc(C(=O)c2cncnc2N[C@@H]2C[C@H](COS(N)(=O)=O)[C@@H](O)C2)cc1Cc1cccc(Cl)c1
Experimental result: 5.20
//
Molecule: NS(=O)(=O)OC[C@H]1C[C@@H](Nc2ncncc2C(=O)c2ccn(Cc3cccc(Cl)n3)n2)C[C@@H]1O
Experimental result: 7.18
//
Molecule: Cc1sc(C(=O)c2cncnc2N[C@@H]2C[C@H](COS(N)(=O)=O)[C@@H](O)C2)cc1C(N)c1cccc(Cl)c1 (some centres undefined)
Experimental result: 7.80
//
Molecule: Cc1sc(C(=O)c2cncnc2N[C@@H]2C[C@H](COS(N)(=O)=O)[C@@H](O)C2)cc1[C@@H]1NCCc2ccc(Cl)cc21
Experimental result: 7.82
//
Molecule: Cc1sc(C(=O)c2cncnc2N[C@@H]2C[C@H](COS(N)(=O)=O)[C@@H](O)C2)cc1Cc1cccc(Cl)c1
Experimental result: 7.72
//
Molecule: NS(=O)(=O)OC[C@H]1C[C@@H](Nc2ncncc2C(=O)c2cc([C@@H]3OCCc4ccccc43)cs2)C[C@@H]1O
Experimental result: 8.40
//
Molecule: Cc1sc(C(=O)c2cncnc2N[C@@H]2C[C@H](COS(N)(=O)=O)[C@@H](O)C2)cc1C1OCCc2ccc(Cl)cc21 (stereo in doubt)
Experimental result: 8.52
//
Molecule: NS(=O)(=O)OC[C@H]1C[C@@H](Nc2ncncc2C(=O)c2ccn(Cc3ccccc3)n2)[C@H](O)[C@@H]1O
Experimental result: 7.59
//
Molecule: NS(=O)(=O)OC[C@H]1C[C@@H](Nc2ncncc2C(=O)c2cc(C3NCCc4ccc(Cl)cc43)cs2)C[C@@H]1O (some centres undefined)
Experimental result: 7.57
//
Molecule: NS(=O)(=O)OC[C@H]1C[C@@H](Nc2ncncc2C(=O)c2cnn(Cc3ccccc3)c2)C[C@@H]1O
Experimental result: 5.53
//
Molecule: NS(=O)(=O)OC[C@H]1C[C@@H](Nc2ncncc2C(=O)c2cc(Cc3cccc(Cl)c3)c(Cl)s2)C[C@@H]1O
Experimental result: 6.97
//
Molecule: NS(=O)(=O)OC[C@H]1C[C@@H](Nc2ncncc2C(=O)c2cc(C3OCc4ccc(Cl)cc43)c(Cl)s2)C[C@@H]1O (some centres undefined)
Experimental result: 6.79
//
Molecule: NS(=O)(=O)OC[C@H]1C[C@@H](Nc2ncncc2C(=O)c2ccn(CC3CCCCC3)n2)C[C@@H]1O
Experimental result: 5.79
//
Molecule: NS(=O)(=O)OC[C@H]1C[C@@H](Nc2ncncc2C(=O)c2cc(C3OCCc4ccc(Cl)cc43)cs2)C[C@@H]1O (some centres undefined)
Experimental result: 8.10
//
Molecule: CN1CCc2ccc(Cl)cc2C1c1csc(C(=O)c2cncnc2N[C@@H]2C[C@H](COS(N)(=O)=O)[C@@H](O)C2)c1 (some centres undefined)
Experimental result: 6.20
//
Molecule: NS(=O)(=O)OC[C@H]1C[C@@H](Nc2ncncc2C(=O)c2cc(C(O)c3cccc(Cl)c3)cs2)C[C@@H]1O (stereo in doubt; 31)
Experimental result: 7.26
//
Molecule: NS(=O)(=O)OC[C@H]1C[C@@H](Nc2ncncc2C(=O)c2ccn(Cc3ccc(Cl)cc3)n2)C[C@@H]1O
Experimental result: 5.73
//
Molecule: Cc1sc(C(=O)c2cncnc2N[C@@H]2C[C@H](COS(N)(=O)=O)[C@@H](O)C2)cc1C1OCCc2ccc(Cl)nc21 (some centres undefined)
Experimental result: 7.70
//
Molecule: NS(=O)(=O)OC[C@H]1C[C@@H](Nc2ncncc2C(=O)c2ccn(Cc3ccc(Cl)s3)n2)C[C@@H]1O
Experimental result: 6.64
//
Molecule: Cc1sc(C(=O)c2cncnc2N[C@@H]2C[C@H](COS(N)(=O)=O)[C@@H](O)C2)cc1C(O)c1cccc(Cl)c1 (some centres undefined)
Experimental result: 8.22
//
Molecule: NS(=O)(=O)OC[C@H]1C[C@@H](Nc2ncncc2C(=O)c2ccn(Cc3ccccc3)n2)[C@@H](F)[C@@H]1O
Experimental result: 6.59
